Target: mouse GnRH receptor (Mus musculus)
Construct: expressed in transfected cells; host or cells: 293 cells
Sequence (Q01776 whole entry): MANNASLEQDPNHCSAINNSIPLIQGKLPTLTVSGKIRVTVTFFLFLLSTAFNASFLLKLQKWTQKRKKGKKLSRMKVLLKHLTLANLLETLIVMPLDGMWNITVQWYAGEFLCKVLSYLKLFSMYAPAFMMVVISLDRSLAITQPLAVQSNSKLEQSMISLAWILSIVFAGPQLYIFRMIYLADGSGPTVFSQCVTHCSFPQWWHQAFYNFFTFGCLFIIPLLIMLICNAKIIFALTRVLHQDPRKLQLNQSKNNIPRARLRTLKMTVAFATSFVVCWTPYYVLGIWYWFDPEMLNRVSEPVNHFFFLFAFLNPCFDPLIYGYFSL
Experiment: Radioligand binding, 125I-GnRH-A, 293 cells expressing mouse GnRH receptors
Conditions: 1 h, substrate remaining; 10 uM compound; closer to zero = closer to 100% inhibition; read-out: S%R 10 uM mGnRHR
readout-label: remaining activity at 10 µM (%)
Response body: numeric value in %, unit text excluded.

Query string: I have this compound here, Cc1ccc(N2CCN(C(=O)c3ccc(Cc4cc5c(cc4C)C(C)(C)CCC5(C)C)o3)CC2)c(C)c1 [Compound 565] , and I need its recorded remaining activity at 10 µM.
Result string: 48

Query string: Entry Cc1cc2c(cc1Cc1ccc(C(=O)NCCNCCNc3ccccc3)o1)C(C)(C)CCC2(C)C [Compound 458] please
Result string: 29

Query string: Entry CCCOCCNC(=O)c1ccc(Cc2cc3c(cc2C)C(C)(C)CCC3(C)C)o1 [Compound 669] please
Result string: -3

Query string: Entry Cc1cc2c(cc1Cc1ccc(C(=O)NCc3ccc4c(c3)OCO4)o1)C(C)(C)CCC2(C)C [Compound 484] please
Result string: -1

Query string: Entry Cc1cc2c(cc1Cc1ccc(C(=O)NCc3ccccc3C(F)(F)F)o1)C(C)(C)CCC2(C)C [Compound 516] please
Result string: 21

Query string: Entry CCCNC(=O)c1ccc(Cc2cc3c(cc2C)C(C)(C)CCC3(C)C)o1 [Compound 687] please
Result string: 7

Query string: Entry COc1cc2c(cc1OC)C(CC#N)N(C(=O)c1ccc(Cc3cc4c(cc3C)C(C)(C)CCC4(C)C)o1)CC2 (centres unmarked) [Compound 614] please
Result string: 48

Query string: Entry Cc1cc2c(cc1Cc1ccc(C(=O)N(C)CC3OCCO3)o1)C(C)(C)CCC2(C)C [Compound 576] please
Result string: 15
